System: rabbit ear acne model
Assay: Rabbit ear acne model: epidermal thickness, hair follicle area, sebaceous gland diameter
Type: in vivo, New Zealand rabbits
Settings: rabbit right ear; external use (0.25% CLY cream; positive: Differin)
A collection of compounds and their measured epidermal thickness

| compound | test target | epidermal thickness (mm) |
| --- | --- | --- |
| COc1ccc(-c2ccc3cc(C(=O)O)ccc3c2)cc1C12CC3CC(CC(C3)C1)C2 [Positive treatment group, adapalene, reference compound] | rabbit ear acne model | 0.2389 |
| O=C(c1ccc(-c2ccccc2Cl)cc1)N(c1ncccc1Cl)[C@@H]1CCCNC1 [CLY-36] | rabbit ear acne model | 0.2387 |
| CCN1CCC[C@@H](N(C(=O)c2ccc(-n3nnc4cccnc43)cc2)c2ncccc2Cl)C1 [CLY-2] | rabbit ear acne model | 0.2348 |
| CN1CCC[C@@H](N(C(=O)c2ccc(-n3nnc4cccnc43)cc2)c2ncccc2Cl)C1 [CLY-1] | rabbit ear acne model | 0.2376 |
| O=C(c1ccc(-n2nnc3cccnc32)cc1)N(c1ncccc1Cl)[C@@H]1CCCN1 [CLY-9] | rabbit ear acne model | 0.2389 |
| NC1CCCC(N(C(=O)c2ccc(-n3nnc4cccnc43)cc2)c2ncccc2Cl)C1 (centres unmarked) [CLY-11] | rabbit ear acne model | 0.2372 |
| CNC1CCCC(N(C(=O)c2ccc(-n3nnc4cccnc43)cc2)c2ncccc2Cl)C1 (centres unmarked) [CLY-3] | rabbit ear acne model | 0.2385 |
| O=C(c1ccc(-c2ccccc2-c2nnn[nH]2)cc1)N(c1ncccc1Cl)[C@@H]1CCCNC1 [CLY-19] | rabbit ear acne model | 0.2365 |
